The origin of these recorded values is patent US5198462A.

# target desc: Acyl-CoA:cholesterol transferase (ACAT) (Rattus norvegicus, UniProt Q7TQM4)
# Construct: prepared from the microsomal fraction of mucosal cells from the small intestines of 6-week old Sprague-Dawley rats; from tissue; host or cells: microsomal fraction of small-intestinal mucosal cells, Sprague-Dawley rats
# Sequence (Q7TQM4 whole entry): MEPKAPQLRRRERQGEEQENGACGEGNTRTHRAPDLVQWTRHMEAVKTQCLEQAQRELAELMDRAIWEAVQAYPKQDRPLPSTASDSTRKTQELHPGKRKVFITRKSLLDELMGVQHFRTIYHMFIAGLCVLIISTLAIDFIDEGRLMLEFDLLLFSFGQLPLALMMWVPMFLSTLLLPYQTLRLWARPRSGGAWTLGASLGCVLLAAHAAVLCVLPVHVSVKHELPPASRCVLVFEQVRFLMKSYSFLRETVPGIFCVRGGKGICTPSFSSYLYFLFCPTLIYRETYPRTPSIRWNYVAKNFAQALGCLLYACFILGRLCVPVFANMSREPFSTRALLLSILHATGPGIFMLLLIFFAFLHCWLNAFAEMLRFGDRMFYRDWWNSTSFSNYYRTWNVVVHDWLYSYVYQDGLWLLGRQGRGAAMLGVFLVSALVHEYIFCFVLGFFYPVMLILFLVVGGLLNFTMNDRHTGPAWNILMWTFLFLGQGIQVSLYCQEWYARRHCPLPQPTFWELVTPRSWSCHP
# assay: Acyl-CoA:cholesterol transferase (ACAT)-inhibiting action
# Assay type: biochemical, Sprague-Dawley rats
# run parameters: 10^-6 M; microsomal fraction of mucosal cells from rat small intestines; labeled cholesterol ester formed from [1-14C]oleyl-CoA; read-out: ACAT inhibiting rate (%) 10^-6 M
measurement kind: inhibition at 1 µM (%)

{"molecule": "Cc1cc(NC(=O)NC2=C(c3ccccc3)c3ccccc3CS2)cc(C)c1O [Example 29]", "inhibition at 1 µM [%]": 95.5}
{"molecule": "COc1ccccc1C1=C(NC(=O)Nc2ccc(N(C)C)cc2)SCc2ccccc21 [Example 28]", "inhibition at 1 µM [%]": 92}

a. O=C(Nc1ccc(F)cc1F)Nc1oc(=O)c2cc(Cl)ccc2c1-c1ccccc1 [Example 9]
b. O=C(Nc1ccc(F)cc1F)Nc1oc(=O)c2ccc(F)cc2c1-c1ccc(F)cc1 [Example 16]
INPUT: Select one. Lower inhibition at 1 µM: a or b Field: selected label. Fill in the label of the entry you choose.
OUTPUT: b
